Where do these numbers come from? They come from ChEMBL document CHEMBL1152641.

concentration reference
# Test system: Brain
# Test Details: Drug level in mouse brain at […], ip
# Format: ADME, organism-based
# Experimental Setup: in vivo, read-out: Drug uptake
// note: answer is a bare numeric in nM

Example results:
Compound	concentration [nM]
Cc1cc(N)nc(C[C@@H]2CNC[C@@H]2NCCNCCc2cccc(F)c2)c1	39
COC(=O)N(CCO[C@H]1CNC[C@H]1Cc1cc(C)cc(N)n1)CCc1cccc(F)c1 (racemic)	18
Cc1cc(N)nc(C[C@@H]2CNC[C@@H]2OCCNCCc2cccc(F)c2)c1 (racemic)	73
CC(=O)N(CCO[C@H]1CNC[C@H]1Cc1cc(C)cc(N)n1)CCc1cccc(F)c1 (racemic)	39

We next turn to a different compound, shown below.
// Cc1cc(N)nc(C[C@@H]2CNC[C@@H]2OCCN(CCc2cccc(F)c2)C(=O)OCc2ccccc2)c1 (racemic) : concentration value = 9
